test: in vitro; conditions: male, Sprague-Dawley, rat, s9, CLint

| Compound | Reading Qualifier | microsomal CLint at 1 μM [µL/min/mg] |
| --- | --- | --- |
| CCCCCCCCCCCCCCCC(=O)NCCOC(=O)CCC(=O)OCC(O)CO (stereo not shown) | = | 125 |
| CCCCCCCCCCCCCCCC(=O)NCCOC(=O)CCC(=O)OC(COC(=O)CCC)COC(=O)CCC | > | 691 |
| CCCCCCCCCCCCCCCC(=O)NCCOC(=O)CCC(=O)OC(CO)CO | = | 50.3 |
| CCCCC/C=C\C/C=C\CCCCCCCC(=O)OCC(COC(=O)CCC(=O)OCCNC(=O)CCCCCCCCCCCCCCC)OC(=O)CCCCCCC/C=C\C/C=C\CCCCC (stereo not shown) | < | 11.6 |
